Reported Kd values for the following compounds.
# System Tested: human Mdm2 1–125 (Homo sapiens, UniProt Q00987)
# Construct: GST (N); His6 (internal); TEV cleavage site ENLYFQG (internal); made in house; host or cells: Escherichia coli BL21 (DE3) Rosetta T1R
# Sequence (Q00987 with tags, fused parts or gaps): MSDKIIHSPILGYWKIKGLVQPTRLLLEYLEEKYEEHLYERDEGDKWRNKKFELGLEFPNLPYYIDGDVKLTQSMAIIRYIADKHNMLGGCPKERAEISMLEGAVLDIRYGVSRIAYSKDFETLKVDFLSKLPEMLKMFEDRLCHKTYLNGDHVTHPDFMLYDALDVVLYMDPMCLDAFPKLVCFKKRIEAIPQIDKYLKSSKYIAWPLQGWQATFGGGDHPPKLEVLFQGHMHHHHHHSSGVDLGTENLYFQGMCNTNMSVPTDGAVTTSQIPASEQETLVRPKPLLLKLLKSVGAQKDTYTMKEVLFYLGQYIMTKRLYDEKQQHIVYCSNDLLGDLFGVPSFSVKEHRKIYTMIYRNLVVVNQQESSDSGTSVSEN
# Assay Text: Mdm2 binding assay (competitive fluorescence anisotropy/polarization)
# Condition Context: Table 1; competitive fluorescence polarization; read-out: Mdm2 (nM), Mdm2 binding (Kd)
Bridge positions count the residues as written; N and C are the ends. Square brackets hold non-standard residues; d marks the D form. Peptide text beside a SMILES is read from it. R8 = C=CCCCCCC[C@@](C)(N)C(=O)O; Cba = N[C@@H](CC1CCC1)C(=O)O; S5 = C=CCCC[C@](C)(N)C(=O)O
Numeric answer only, unit nM assumed.

CC(=O)N[C@@H](CC(C)C)C(=O)N[C@@H](C(=O)N[C@@H](Cc1ccccc1)C(=O)N[C@]1(C)CCCCCCC=CCCC[C@@](C)(C(=O)N[C@@H](CO)C(=O)N[C@@H](C)C(=O)N[C@@H](C)C(N)=O)NC(=O)[C@H](CC2CCC2)NC(=O)[C@H](CC(C)C)NC(=O)[C@H](CCC(N)=O)NC(=O)[C@H](Cc2c[nH]c3ccccc23)NC(=O)[C@H](Cc2ccc(O)cc2)NC(=O)[C@H](CCC(=O)O)NC1=O)[C@H](C)O = 136

Could you now consider this next compound?
q: Find the measured Kd of CC(=O)N[C@@H](CC(C)C)C(=O)N[C@H](C(=O)N[C@@H](Cc1ccccc1)C(=O)N[C@]1(C)CCCCCCC=CCCC[C@@](C)(C(=O)N[C@@H](CO)C(=O)N[C@@H](C)C(=O)N[C@@H](C)C(N)=O)NC(=O)[C@H](CC2CCC2)NC(=O)[C@H](CC(C)C)NC(=O)[C@H](CCC(N)=O)NC(=O)[C@H](Cc2c[nH]c3ccccc23)NC(=O)[C@H](C)NC(=O)[C@H](CCC(=O)O)NC1=O)[C@@H](C)O [Peptide Y6A] (Ac-LTF[R8]EAWQL[Cba][S5]SAA-NH2; staple 4-11) and report it.
a: 38.9

---

# Assay Text: Lactate dehydrogenase (LDH) release assay
# Assay type: cell-based
# Condition Context: membrane integrity, HCT116
pEC50: −log10 of the molar value.
Metric Name: pEC50

q: For the compound CC(=O)N[C@@H](CC(C)C)C(=O)N[C@H](C(=O)N[C@@H](Cc1ccccc1)C(=O)N[C@]1(C)CCCCCCC=CCCC[C@@](C)(C(=O)N[C@@H](CO)C(=O)N[C@@H](C)C(=O)N[C@@H](C)C(N)=O)NC(=O)[C@H](CC2CCC2)NC(=O)[C@H](CC(C)C)NC(=O)[C@H](CCC(N)=O)NC(=O)[C@H](Cc2c[nH]c3ccccc23)NC(=O)[C@H](Cc2ccc(O)cc2)NC(=O)[C@H](CCC(=O)O)NC1=O)[C@@H](C)O , report pEC50.
a: < 4.30

---

# Assay Text: Circular dichroism (CD) α-helicity
# Format: physicochemical
# Condition Context: Table 1; CD of free peptide, 25 °C, 1 mM Hepes pH 7.4, 5% methanol
Bridge positions count the residues as written; N and C are the ends. Square brackets hold non-standard residues; d marks the D form. Peptide text beside a SMILES is read from it. R8 = C=CCCCCCC[C@@](C)(N)C(=O)O; Cba = N[C@@H](CC1CCC1)C(=O)O; S5 = C=CCCC[C@](C)(N)C(=O)O
Helicity (%) overview
Form entry: value (%) — number only.

Consider the worked cases shown below.
CC(=O)N[C@@H](CC(C)C)C(=O)N[C@H](C(=O)N[C@@H](Cc1ccccc1)C(=O)N[C@]1(C)CCCCCCC=CCCC[C@@](C)(C(=O)N[C@@H](CO)C(=O)N[C@@H](C)C(=O)N[C@@H](C)C(N)=O)NC(=O)[C@H](CC2CCC2)NC(=O)[C@H](CC(C)C)NC(=O)[C@H](CCC(N)=O)NC(=O)[C@H](Cc2c[nH]c3ccccc23)NC(=O)[C@H](Cc2ccc(O)cc2)NC(=O)[C@@H](CCC(=O)O)NC1=O)[C@@H](C)O [E5(D-Glu)] = 38.2
CC(=O)N[C@H](CC(C)C)C(=O)N[C@H](C(=O)N[C@@H](Cc1ccccc1)C(=O)NC(C)(C)C(=O)N[C@@H](CCC(=O)O)C(=O)N[C@@H](Cc1ccc(O)cc1)C(=O)N[C@@H](Cc1c[nH]c2ccccc12)C(=O)N[C@@H](CCC(N)=O)C(=O)N[C@@H](CC(C)C)C(=O)N[C@@H](CC1CCC1)C(=O)NC(C)(C)C(=O)N[C@@H](CO)C(=O)N[C@@H](C)C(=O)N[C@@H](C)C(N)=O)[C@@H](C)O [Linear L1(D-Leu)] = 37.2
CC(=O)N[C@@H](CC(C)C)C(=O)N[C@H](C(=O)N[C@@H](C)C(=O)N[C@]1(C)CCCCCCC=CCCC[C@@](C)(C(=O)N[C@@H](CO)C(=O)N[C@@H](C)C(=O)N[C@@H](C)C(N)=O)NC(=O)[C@H](CC2CCC2)NC(=O)[C@H](CC(C)C)NC(=O)[C@H](CCC(N)=O)NC(=O)[C@H](Cc2c[nH]c3ccccc23)NC(=O)[C@H](Cc2ccc(O)cc2)NC(=O)[C@H](CCC(=O)O)NC1=O)[C@@H](C)O [Peptide F3A] (Ac-LTA[R8]EYWQL[Cba][S5]SAA-NH2; staple 4-11) = 48.4
CC(=O)N[C@@H](CC(C)C)C(=O)N[C@H](C(=O)N[C@@H](Cc1ccccc1)C(=O)N[C@]1(C)CCCCCCC=CCCC[C@@](C)(C(=O)N[C@@H](CO)C(=O)N[C@@H](C)C(=O)N[C@@H](C)C(N)=O)NC(=O)[C@H](CC2CCC2)NC(=O)[C@H](CC(C)C)NC(=O)[C@@H](CCC(N)=O)NC(=O)[C@H](Cc2c[nH]c3ccccc23)NC(=O)[C@H](Cc2ccc(O)cc2)NC(=O)[C@H](CCC(=O)O)NC1=O)[C@@H](C)O [Q8(D-Gln)] = 27.1

Next:
q: Look up and report measured Helicity (%) for this entry: CC(=O)N[C@@H](CC(C)C)C(=O)N[C@@H](C(=O)N[C@@H](Cc1ccccc1)C(=O)N[C@]1(C)CCCCCCC=CCCC[C@@](C)(C(=O)N[C@@H](CO)C(=O)N[C@@H](C)C(=O)N[C@@H](C)C(N)=O)NC(=O)[C@H](CC2CCC2)NC(=O)[C@H](CC(C)C)NC(=O)[C@H](CCC(N)=O)NC(=O)[C@H](Cc2c[nH]c3ccccc23)NC(=O)[C@H](Cc2ccc(O)cc2)NC(=O)[C@H](CCC(=O)O)NC1=O)[C@H](C)O [T2(D-Thr)]
a: 40.7

meta.source: paper PMC6632053
